# method: Quinidine drug-drug interaction study: edoxaban pharmacokinetics
# protocol-conditions: human, in vivo, 60 mg
metric-name: half-life (h)
Number in h, nothing else.

Query (compound): CN1CCc2nc(C(=O)N[C@@H]3C[C@@H](C(=O)N(C)C)CC[C@@H]3NC(=O)C(=O)Nc3ccc(Cl)cn3)sc2C1 ; field requested: half-life 6.43

====

# method: Verapamil drug-drug interaction study: edoxaban pharmacokinetics
# protocol-conditions: human, in vivo, 60 mg
metric-name: Tmax (h)
Number in h, nothing else.

Query (compound): CN1CCc2nc(C(=O)N[C@@H]3C[C@@H](C(=O)N(C)C)CC[C@@H]3NC(=O)C(=O)Nc3ccc(Cl)cn3)sc2C1 [Edoxaban, edoxaban] ; field requested: Tmax 1.48

====

# method: Edoxaban administered alone, pharmacokinetics across the 6 studies
# protocol-conditions: human, in vivo, 60 mg
metric-name: AUC(0-inf)

Query (compound): CN1CCc2nc(C(=O)N[C@@H]3C[C@@H](C(=O)N(C)C)CC[C@@H]3NC(=O)C(=O)Nc3ccc(Cl)cn3)sc2C1 ; field requested: AUC(0-inf) 1.58 to 1.97 µg·h/mL

====

# method: Verapamil drug-drug interaction study: edoxaban pharmacokinetics
# protocol-conditions: human, in vivo, 60 mg
metric-name: AUC(0-t)

Query (compound): CN1CCc2nc(C(=O)N[C@@H]3C[C@@H](C(=O)N(C)C)CC[C@@H]3NC(=O)C(=O)Nc3ccc(Cl)cn3)sc2C1 ; field requested: AUC(0-t) 1440 ng·h/mL

====

# method: Amiodarone drug-drug interaction study: edoxaban pharmacokinetics
# protocol-conditions: human, in vivo, 60 mg
metric-name: AUC(0-t)
Reply with the number and its unit after it.

Query (compound): CN1CCc2nc(C(=O)N[C@@H]3C[C@@H](C(=O)N(C)C)CC[C@@H]3NC(=O)C(=O)Nc3ccc(Cl)cn3)sc2C1 ; field requested: AUC(0-t) 1720 ng·h/mL

====

# method: Digoxin drug-drug interaction study: edoxaban pharmacokinetics
# protocol-conditions: human, in vivo, 60 mg
metric-name: concentration at 24 h (ng/mL)
Number in ng/mL, nothing else.

Query (molecule): CN1CCc2nc(C(=O)N[C@@H]3C[C@@H](C(=O)N(C)C)CC[C@@H]3NC(=O)C(=O)Nc3ccc(Cl)cn3)sc2C1 [Edoxaban, edoxaban] ; field requested: concentration at 24 h 24.5

====

# method: Atorvastatin drug-drug interaction study: edoxaban pharmacokinetics
# protocol-conditions: human, in vivo, 60 mg
metric-name: concentration at 24 h
Reply with the number and its unit after it.

Query (compound): CN1CCc2nc(C(=O)N[C@@H]3C[C@@H](C(=O)N(C)C)CC[C@@H]3NC(=O)C(=O)Nc3ccc(Cl)cn3)sc2C1 ; field requested: concentration at 24 h 12.6 ng/mL

====

# method: Amiodarone drug-drug interaction study: edoxaban pharmacokinetics
# protocol-conditions: human, in vivo, 60 mg
metric-name: AUC(0-inf) (µg·h/mL)
Number in µg·h/mL, nothing else.

Query (compound): CN1CCc2nc(C(=O)N[C@@H]3C[C@@H](C(=O)N(C)C)CC[C@@H]3NC(=O)C(=O)Nc3ccc(Cl)cn3)sc2C1 ; field requested: AUC(0-inf) 1.74

====

# method: Amiodarone drug-drug interaction study: edoxaban pharmacokinetics
# protocol-conditions: human, in vivo, 60 mg
metric-name: half-life (min)
Number in min, nothing else.

Query (compound): CN1CCc2nc(C(=O)N[C@@H]3C[C@@H](C(=O)N(C)C)CC[C@@H]3NC(=O)C(=O)Nc3ccc(Cl)cn3)sc2C1 ; field requested: half-life 735

====

# method: Amiodarone drug-drug interaction study: edoxaban pharmacokinetics
# protocol-conditions: human, in vivo, 60 mg
metric-name: Cmax (ng/mL)
Number in ng/mL, nothing else.

Query (compound): CN1CCc2nc(C(=O)N[C@@H]3C[C@@H](C(=O)N(C)C)CC[C@@H]3NC(=O)C(=O)Nc3ccc(Cl)cn3)sc2C1 ; field requested: Cmax 251

====

# method: Quinidine drug-drug interaction study: edoxaban pharmacokinetics
# protocol-conditions: human, in vivo, 60 mg
metric-name: Cmax

Query (compound): CN1CCc2nc(C(=O)N[C@@H]3C[C@@H](C(=O)N(C)C)CC[C@@H]3NC(=O)C(=O)Nc3ccc(Cl)cn3)sc2C1 ; field requested: Cmax 223 ng/mL

====

# method: Digoxin drug-drug interaction study: edoxaban pharmacokinetics
# protocol-conditions: human, in vivo, 60 mg
metric-name: AUC (ng·h/mL)
Number in ng·h/mL, nothing else.

Query (molecule): CN1CCc2nc(C(=O)N[C@@H]3C[C@@H](C(=O)N(C)C)CC[C@@H]3NC(=O)C(=O)Nc3ccc(Cl)cn3)sc2C1 [Edoxaban, edoxaban] ; field requested: AUC 1960

====

# method: Edoxaban administered alone, pharmacokinetics across the 6 studies
# protocol-conditions: human, in vivo, 60 mg
metric-name: Cmax

Query (compound): CN1CCc2nc(C(=O)N[C@@H]3C[C@@H](C(=O)N(C)C)CC[C@@H]3NC(=O)C(=O)Nc3ccc(Cl)cn3)sc2C1 [Edoxaban, edoxaban] ; field requested: Cmax 223 to 296 ng/mL

====

# method: Verapamil drug-drug interaction study: edoxaban pharmacokinetics
# protocol-conditions: human, in vivo, 60 mg
metric-name: concentration at 24 h (ng/mL)
Number in ng/mL, nothing else.

Query (compound): CN1CCc2nc(C(=O)N[C@@H]3C[C@@H](C(=O)N(C)C)CC[C@@H]3NC(=O)C(=O)Nc3ccc(Cl)cn3)sc2C1 [Edoxaban, edoxaban] ; field requested: concentration at 24 h 11

====

# method: Quinidine drug-drug interaction study: edoxaban pharmacokinetics
# protocol-conditions: human, in vivo, 60 mg
metric-name: concentration at 24 h (ng/mL)
Number in ng/mL, nothing else.

Query (compound): CN1CCc2nc(C(=O)N[C@@H]3C[C@@H](C(=O)N(C)C)CC[C@@H]3NC(=O)C(=O)Nc3ccc(Cl)cn3)sc2C1 [Edoxaban, edoxaban] ; field requested: concentration at 24 h 11

====

# method: Verapamil drug-drug interaction study: edoxaban pharmacokinetics
# protocol-conditions: human, in vivo, 60 mg
metric-name: Cmax (ng/mL)
Number in ng/mL, nothing else.

Query (compound): CN1CCc2nc(C(=O)N[C@@H]3C[C@@H](C(=O)N(C)C)CC[C@@H]3NC(=O)C(=O)Nc3ccc(Cl)cn3)sc2C1 ; field requested: Cmax 226

====

# method: Atorvastatin drug-drug interaction study: edoxaban pharmacokinetics
# protocol-conditions: human, in vivo, 60 mg
metric-name: half-life (h)
Number in h, nothing else.

Query (molecule): CN1CCc2nc(C(=O)N[C@@H]3C[C@@H](C(=O)N(C)C)CC[C@@H]3NC(=O)C(=O)Nc3ccc(Cl)cn3)sc2C1 ; field requested: half-life 12

====

# method: Verapamil drug-drug interaction study: edoxaban pharmacokinetics
# protocol-conditions: human, in vivo, 60 mg
metric-name: half-life (h)
Number in h, nothing else.

Query (compound): CN1CCc2nc(C(=O)N[C@@H]3C[C@@H](C(=O)N(C)C)CC[C@@H]3NC(=O)C(=O)Nc3ccc(Cl)cn3)sc2C1 ; field requested: half-life 7.43

====

# method: Atorvastatin drug-drug interaction study: edoxaban pharmacokinetics
# protocol-conditions: human, in vivo, 60 mg
metric-name: AUC(0-inf) (ng·h/mL)
Number in ng·h/mL, nothing else.

Query (compound): CN1CCc2nc(C(=O)N[C@@H]3C[C@@H](C(=O)N(C)C)CC[C@@H]3NC(=O)C(=O)Nc3ccc(Cl)cn3)sc2C1 [Edoxaban, edoxaban] ; field requested: AUC(0-inf) 1970

====

# method: Dronedarone drug-drug interaction study: edoxaban pharmacokinetics
# protocol-conditions: human, in vivo, 60 mg
metric-name: half-life (h)
Number in h, nothing else.

Query (compound): CN1CCc2nc(C(=O)N[C@@H]3C[C@@H](C(=O)N(C)C)CC[C@@H]3NC(=O)C(=O)Nc3ccc(Cl)cn3)sc2C1 ; field requested: half-life 10.2
